System: SNB-75
Test: NCI tumour cell line growth inhibition, 48 h
Active and inactive are the calls of the source. Rule as the data show it: active = GI50 up to about 1.1 µM and inactive = higher.
Classes used: active, inactive

>>> discrete_label("O=CNNC(=O)CSc1nc2ccc(I)cc2c(=O)n1Cc1ccccc1")
"inactive"
>>> discrete_label("CC1=CC[C@@]2(C)CC[C@](O)(C(C)C)C2C(OC(=O)c2ccccc2)C1 (stereo partly drawn)")
"inactive"
>>> discrete_label("OC1C2C=CCC1CCC2 (stereo not drawn)")
"inactive"
>>> discrete_label("COc1cccc2cc(C(=O)NC34CC5CC(CC(C5)C3)C4)c(=N)oc12")
"inactive"
>>> discrete_label("O=C(NNc1ccc([N+](=O)[O-])cc1[N+](=O)[O-])/C(O)=C\\C(=O)c1ccccc1")
"inactive"
>>> discrete_label("COc1ccc(C(C)NNC(=O)c2cc[n+]([BH2-]C#N)cc2)c(OC)c1 (stereo not drawn)")
"inactive"
>>> discrete_label("COc1cc2c(cc1OCCCCCCCCN1C(=O)c3cccc4cccc(c34)C1=O)N=C[C@@H]1CCCN1C2=O")
"active"
>>> discrete_label("COc1ccc2oc(=O)c(-c3cc4c(c(C)n3)c(=O)oc3ccc(OC)cc34)cc2c1")
"inactive"
>>> discrete_label("O=c1c2ccccc2nc(-c2ccccc2)n1/N=C/c1ccccc1[N+](=O)[O-]")
"inactive"
>>> discrete_label("Cn1c2c(c3c(=O)[nH]ncc31)Cc1ccccc1-2")
"inactive"
>>> discrete_label("N=C(N)NS(=O)(=O)c1ccc(Nc2c3ccccc3nc3c(C(=O)N4CCN(CCO)CC4)cccc23)cc1")
"inactive"
>>> discrete_label("CCCN(CCC)C(=S)N/N=C/c1ccccn1")
"active"
>>> discrete_label("OCC(O)C(O)C(O)C(/C=N\\Nc1ncnc2ccc(Br)cc12)=N/Nc1ncnc2ccc(Br)cc12 (stereo not drawn)")
"inactive"
>>> discrete_label("CCCC/C=C1\\CCC(CN2CCOCC2)C1=O (stereo not drawn)")
"inactive"
>>> discrete_label("CCOC(=O)c1cnc(-n2[nH]c(C)c(CCO)c2=O)[nH]c1=O")
"inactive"
>>> discrete_label("CCOC(=O)c1ccc2nc(-c3ccc(S(=O)(=O)F)cc3)cc(O)c2c1")
"inactive"
>>> discrete_label("Cc1cccc(C)c1NC(=O)C(=O)CC(=O)/C=C/c1ccccc1")
"inactive"
>>> discrete_label("N#Cc1c(-c2ccccc2)cc(-c2ccccc2)n(C2OCC(O)C(O)C2O)c1=S (stereo not drawn)")
"inactive"
>>> discrete_label("O=C1Oc2ccccc2C(=O)/C1=C/NC(=S)NCCc1ccccc1")
"inactive"
>>> discrete_label("Cc1csc(-n2c(C)nc3cc(Cl)ccc3c2=O)n1")
"inactive"
>>> discrete_label("CCCCc1cc2c(C)cc(=O)oc2c(O)c1O")
"inactive"
>>> discrete_label("O=C(c1ccccc1)C1C[C@H]2CO[C@H](c3ccccc3)N2C1=O (stereo partly drawn)")
"inactive"
>>> discrete_label("Nc1nc(Cl)cc(NCC2(CO)CC(O)C2)n1 (stereo not drawn)")
"inactive"
>>> discrete_label("COc1ccccc1NC(=O)C(=O)C(c1cnc2ccc([N+](=O)[O-])cc2n1)[N+](=O)[O-] (stereo not drawn)")
"inactive"
>>> discrete_label("COC(=O)C1C(OC(=O)c2ccccc2)CC2CCC1N2C(N)=O (stereo not drawn)")
"inactive"
>>> discrete_label("CCCCNC(=O)C1C2CCC(O2)C1C(=O)O (stereo not drawn)")
"inactive"
>>> discrete_label("O=C1CNNC(Cn2nc(-c3ccccc3)c3ccccc3c2=O)=N1")
"inactive"
>>> discrete_label("CCN(CC)CCCNc1nc(=O)[nH]c(C)c1C(=O)Nc1cccc2cc3ccccc3cc12")
"inactive"
>>> discrete_label("C/C(=N\\NS(=O)(=O)c1ccc(C)cc1)P(=O)(O)O")
"inactive"
>>> discrete_label("O=C(O)COc1ccccc1C(=O)Nc1ccccc1")
"inactive"
>>> discrete_label("O=C1NC(N2CCCCC2)=N/C1=C\\c1ccccc1")
"inactive"
>>> discrete_label("Cc1ccccc1Nc1nc2c(s1)C(=O)c1ccccc1C2=O")
"inactive"
>>> discrete_label("CS/C(=N\\C(=S)N(C)C)N(c1ccccc1)c1nc(N(C)C)s[s+]1")
"inactive"
>>> discrete_label("O=C(NCCN1CCOCC1)c1cn2c(ccc3sc4ccccc4c(=O)c32)n1")
"inactive"
>>> discrete_label("COc1ccc(NC(C)=O)c(C(=O)CCNC(C)=O)c1")
"inactive"
>>> discrete_label("COC(=O)/C=C1/OC(c2ccccc2)=C(Br)C1=O")
"inactive"
>>> discrete_label("Cn1c(N)c(/C=C/C(=O)Oc2ccccc2)c(=O)n(C)c1=O")
"inactive"
>>> discrete_label("O=C1NCC2(CCNCC2)N1")
"inactive"
>>> discrete_label("N#Cc1ccc(OC(=O)c2ccc(NC(=N)N)cc2)cc1.c1ccncc1")
"inactive"
>>> discrete_label("Cc1nc2c(o1)/C(=N\\c1ccccc1)c1ccccc1/C2=N/c1ccccc1")
"inactive"
>>> discrete_label("COn1cc(CO)c2ccccc21")
"inactive"
>>> discrete_label("COC(=O)Nc1nc2cc(S(=O)(=O)n3nnc4ccccc43)ccc2[nH]1")
"inactive"
>>> discrete_label("O=c1nc(-c2ccccc2)scc1-c1ccccc1")
"inactive"
